- system: Heat shock factor protein 1 (Mus musculus, UniProt P38532)
- Sequence (P38532 whole entry): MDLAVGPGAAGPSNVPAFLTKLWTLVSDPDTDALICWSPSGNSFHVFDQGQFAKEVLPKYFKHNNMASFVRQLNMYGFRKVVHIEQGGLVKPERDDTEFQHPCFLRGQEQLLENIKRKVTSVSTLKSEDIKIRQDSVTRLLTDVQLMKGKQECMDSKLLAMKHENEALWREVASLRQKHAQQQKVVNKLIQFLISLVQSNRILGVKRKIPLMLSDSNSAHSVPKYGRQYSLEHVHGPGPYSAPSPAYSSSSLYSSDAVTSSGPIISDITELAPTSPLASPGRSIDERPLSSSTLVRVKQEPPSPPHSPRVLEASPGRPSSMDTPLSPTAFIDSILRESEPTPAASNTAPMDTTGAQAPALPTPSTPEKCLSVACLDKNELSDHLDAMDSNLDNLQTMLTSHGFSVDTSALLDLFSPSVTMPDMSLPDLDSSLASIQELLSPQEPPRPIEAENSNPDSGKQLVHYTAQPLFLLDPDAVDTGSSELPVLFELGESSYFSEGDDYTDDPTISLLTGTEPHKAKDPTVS
- protocol summary: enhancement of HSF1-driven luciferase signal – cell-based, NIH3T3, luminescence, dose retest, confirmation (AID 435004);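 further: stress induced by proteasome inhibitor MG132 added 30 min after compound; luciferase reporter driven by HSF1 response element in NIH3T3 cells; actives raise luminescence as potentiators of the MG132 stress response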
- Type: functional
Calls of active or inactive are those of the source.
Entry note: the call must match one of Yes for active, No for inactive

{"compound": "Clc1ccc(/N=c2\\ssnc2Cl)nc1", "system": "Heat shock factor protein 1 (Mus musculus, UniProt P38532)", "assigned category": "Yes"}
{"compound": "CC(C)(C)NC(=O)NC(=O)CN1CC=C(c2ccccc2)CC1", "system": "Heat shock factor protein 1 (Mus musculus, UniProt P38532)", "assigned category": "No"}

Task: Per the records of this test, what outcome belongs to CCOC(=O)N1CCC(NS(=O)(=O)c2ccc3c(c2)C(C)(C)C(=O)N3C)CC1 ?
Output: No

Task: Also check CCOc1ccccc1CN1CCNC(=O)C1CC(=O)NCc1nccn1CC (stereo unspecified)
Output: No

Task: Also check COc1ccc(/C=N/NC(=O)c2cccnc2)c(C(=O)O)c1OC
Output: No

====

- system: Peroxisome proliferator-activated receptor gamma/Nuclear receptor coactivator 1 (Homo sapiens, UniProt P37231)
- Sequence (P37231 whole entry): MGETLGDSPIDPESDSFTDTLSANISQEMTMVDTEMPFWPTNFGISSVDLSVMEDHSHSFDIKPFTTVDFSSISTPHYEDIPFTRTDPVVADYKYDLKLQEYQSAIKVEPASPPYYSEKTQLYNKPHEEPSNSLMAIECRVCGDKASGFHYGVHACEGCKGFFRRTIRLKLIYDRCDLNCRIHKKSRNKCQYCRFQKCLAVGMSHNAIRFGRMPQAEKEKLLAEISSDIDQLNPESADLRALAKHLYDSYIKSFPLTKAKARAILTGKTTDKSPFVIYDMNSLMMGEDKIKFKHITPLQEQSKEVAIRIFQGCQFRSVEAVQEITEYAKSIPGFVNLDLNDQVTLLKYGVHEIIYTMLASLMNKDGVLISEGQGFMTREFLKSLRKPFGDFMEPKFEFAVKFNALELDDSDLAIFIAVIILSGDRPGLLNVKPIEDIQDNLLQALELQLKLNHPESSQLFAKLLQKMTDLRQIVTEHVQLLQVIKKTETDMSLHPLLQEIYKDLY
- Sequence (Q15788 whole entry, further chain): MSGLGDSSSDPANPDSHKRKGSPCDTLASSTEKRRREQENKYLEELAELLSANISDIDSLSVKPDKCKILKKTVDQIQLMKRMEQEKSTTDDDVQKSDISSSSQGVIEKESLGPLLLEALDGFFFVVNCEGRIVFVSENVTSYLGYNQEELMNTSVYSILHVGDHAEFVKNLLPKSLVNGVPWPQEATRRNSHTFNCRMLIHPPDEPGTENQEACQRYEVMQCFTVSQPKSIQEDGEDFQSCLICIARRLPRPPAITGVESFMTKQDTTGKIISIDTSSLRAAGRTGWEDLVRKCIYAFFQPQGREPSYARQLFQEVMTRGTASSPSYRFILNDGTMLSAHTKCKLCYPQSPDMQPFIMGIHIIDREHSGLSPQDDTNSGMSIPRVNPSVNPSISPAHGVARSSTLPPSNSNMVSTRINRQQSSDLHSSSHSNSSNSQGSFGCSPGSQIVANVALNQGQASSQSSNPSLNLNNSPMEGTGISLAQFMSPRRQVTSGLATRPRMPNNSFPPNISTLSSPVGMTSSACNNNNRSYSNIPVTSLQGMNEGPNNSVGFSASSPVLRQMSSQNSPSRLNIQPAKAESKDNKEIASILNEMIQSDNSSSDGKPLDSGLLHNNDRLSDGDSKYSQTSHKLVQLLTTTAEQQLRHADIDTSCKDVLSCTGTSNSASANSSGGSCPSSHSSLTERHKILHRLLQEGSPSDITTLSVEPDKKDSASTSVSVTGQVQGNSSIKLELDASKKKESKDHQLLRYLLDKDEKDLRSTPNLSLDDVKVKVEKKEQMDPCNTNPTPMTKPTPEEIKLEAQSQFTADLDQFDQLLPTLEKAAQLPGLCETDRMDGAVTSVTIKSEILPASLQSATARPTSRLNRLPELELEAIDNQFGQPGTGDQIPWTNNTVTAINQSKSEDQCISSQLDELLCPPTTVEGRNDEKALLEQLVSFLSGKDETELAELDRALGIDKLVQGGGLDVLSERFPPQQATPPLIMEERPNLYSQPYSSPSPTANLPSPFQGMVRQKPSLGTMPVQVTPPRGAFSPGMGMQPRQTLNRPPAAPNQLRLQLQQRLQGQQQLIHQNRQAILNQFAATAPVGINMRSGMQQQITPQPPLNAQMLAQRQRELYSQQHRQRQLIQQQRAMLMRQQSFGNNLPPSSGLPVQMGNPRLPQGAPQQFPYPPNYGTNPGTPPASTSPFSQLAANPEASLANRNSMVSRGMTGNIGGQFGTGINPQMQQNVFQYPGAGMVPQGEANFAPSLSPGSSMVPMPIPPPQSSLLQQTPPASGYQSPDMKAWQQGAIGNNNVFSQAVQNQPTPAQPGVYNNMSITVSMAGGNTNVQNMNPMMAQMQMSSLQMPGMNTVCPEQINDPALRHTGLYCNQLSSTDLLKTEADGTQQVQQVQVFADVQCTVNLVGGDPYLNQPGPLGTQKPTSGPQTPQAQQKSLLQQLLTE
- protocol summary: TR-FRET dose response biochemical High Throughput Screening assay for agonists of the steroid receptor coactivator 1 (SRC-1) recruitment by the peroxisome proliferator-activated receptor gamma (PPAR gamma): non-selective agonists. [Related pubchem assays (depositor defined):AID1300, AID1808, AID504735, AID631]
- Assay type: protein assay
Activity calls are given as the source filed them.
Entry note: the call must match one of true (1) = active, false (0) = inactive

{"compound structure": "Cc1cccc(Nc2nn3c(=O)c4ccccc4nc3s2)c1", "assigned category": "false (0)"}
{"compound structure": "O=C(Nc1cccnc1)c1sc(Nc2ccccc2F)nc1-c1ccccc1", "assigned category": "true (1)"}
{"compound structure": "NC(=O)CSc1oc(-c2cccs2)nc1S(=O)(=O)c1ccccc1", "assigned category": "false (0)"}

Next compound, please.
Task: Per the records of this test, what outcome belongs to COc1ccc(-c2nc(-c3cccs3)c(-c3cccs3)[nH]2)cc1O ?
Output: true (1)

====

- system: Nonstructural protein 1 (Influenza A virus, UniProt Q194T2)
- Sequence (Q194T2 whole entry): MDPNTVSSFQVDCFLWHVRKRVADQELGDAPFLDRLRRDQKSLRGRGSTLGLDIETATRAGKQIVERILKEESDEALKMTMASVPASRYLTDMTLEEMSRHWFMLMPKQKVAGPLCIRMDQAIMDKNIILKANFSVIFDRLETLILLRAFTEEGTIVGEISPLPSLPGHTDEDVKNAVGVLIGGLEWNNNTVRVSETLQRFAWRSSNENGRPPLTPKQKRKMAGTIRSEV
- Type: functional, Influenza A virus (A/California/07/2009(H1N1))
The source made the active and inactive calls.
assay readout: IC50

Answered cases to consult:
{"molecule": "Nc1nn(-c2ccccc2)c(N)c1N=Nc1ccccc1F", "result": "> 100 µM (active)"}
{"molecule": "Cc1cc(C(=O)N/N=C/c2cccc([N+](=O)[O-])c2O)[nH]n1", "result": "7.33 µM (active)"}
{"molecule": "O=C(N/N=C/c1cc(Br)c(O)c(Br)c1O)c1cccnc1", "result": "15.5 µM (active)"}

Report IC50 for each item below.
1. Cc1ccccc1N1C(=O)/C(=C/NNC(=O)c2ccccc2O)C(=O)NC1=S
2. Cc1onc(-c2ccccc2Cl)c1C(=O)NCCn1c(C)cc2ccccc21
3. CCOC(=O)c1nc(Nc2ccc(N3CCC(C)CC3)cc2)c2ccccc2n1

Output:
13.4 µM (active)
> 100 µM (active)
26.9 µM (active)
